- study.target: CYP3A4 (Homo sapiens, UniProt P08684)
- Construct: each reaction was performed with 0.5 mg/mL pooled human liver microsomes; tissue Corning Gentest BD UltraPool HLM 150; host or cells: pooled human liver microsomes
- Sequence (P08684 whole entry): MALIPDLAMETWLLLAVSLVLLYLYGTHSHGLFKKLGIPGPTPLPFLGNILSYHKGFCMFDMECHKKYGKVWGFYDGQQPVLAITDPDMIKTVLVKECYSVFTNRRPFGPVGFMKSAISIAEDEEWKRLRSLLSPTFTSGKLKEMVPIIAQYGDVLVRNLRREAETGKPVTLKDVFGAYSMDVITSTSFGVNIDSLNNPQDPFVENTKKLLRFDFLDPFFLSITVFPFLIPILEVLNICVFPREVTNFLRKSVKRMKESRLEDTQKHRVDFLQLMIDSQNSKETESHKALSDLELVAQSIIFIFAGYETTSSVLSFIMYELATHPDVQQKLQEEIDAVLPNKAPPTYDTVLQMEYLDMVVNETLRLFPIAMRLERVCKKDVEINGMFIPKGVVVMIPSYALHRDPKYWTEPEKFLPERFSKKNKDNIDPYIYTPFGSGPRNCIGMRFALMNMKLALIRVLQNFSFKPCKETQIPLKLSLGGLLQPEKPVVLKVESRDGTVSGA
- experiment.summary: CYP inhibition, cocktail of probe substrates in pooled human liver microsomes: midazolam 1'-hydroxylation
- Format: in vitro ADME
- experimental.conditions: pooled HLMs, substrate 2.5 μM, without preincubation, read-out: IC50 Without preincubation
quantity.name: IC50

# mol, quantity.name, assay.result
records = [
    ("O=c1ccc2c(ccc3ccoc32)o1", "IC50", "> 100 µM"),
]

---

- study.target: CYP2D6 (Homo sapiens)
- Construct: each reaction was performed with 0.5 mg/mL pooled human liver microsomes; tissue Corning Gentest BD UltraPool HLM 150; host or cells: pooled human liver microsomes
- Sequence (P10635 whole entry): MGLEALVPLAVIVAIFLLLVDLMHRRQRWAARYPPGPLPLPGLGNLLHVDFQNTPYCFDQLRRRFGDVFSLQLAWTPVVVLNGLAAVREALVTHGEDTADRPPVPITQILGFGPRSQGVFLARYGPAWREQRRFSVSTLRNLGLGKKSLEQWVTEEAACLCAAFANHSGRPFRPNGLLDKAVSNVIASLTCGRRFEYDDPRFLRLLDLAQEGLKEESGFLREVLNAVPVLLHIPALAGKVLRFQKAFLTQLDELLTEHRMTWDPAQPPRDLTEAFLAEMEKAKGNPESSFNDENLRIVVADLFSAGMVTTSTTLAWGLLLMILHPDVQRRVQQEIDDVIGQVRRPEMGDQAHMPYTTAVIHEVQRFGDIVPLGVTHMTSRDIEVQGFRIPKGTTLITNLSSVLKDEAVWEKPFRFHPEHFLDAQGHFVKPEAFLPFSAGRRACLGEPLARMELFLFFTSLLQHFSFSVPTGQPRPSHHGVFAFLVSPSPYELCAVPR
- experiment.summary: CYP inhibition, cocktail of probe substrates in pooled human liver microsomes: dextromethorphan O-demethylation
- Type: in vitro ADME
- experimental.conditions: pooled HLMs, dextromethorphan O-deethylation, substrate 5 μM, 15 min preincubation without NADPH; read-out: IC50 With preincubation Without NADPH

# mol, IC50 [µM]
data = [
    ("O=c1ccc2c(ccc3ccoc32)o1", 21.7),
]
